- target-under-test: calpain-I (Homo sapiens, UniProt P07384)
- Construct: calpain-I—isolated from human erythrocytes
- Sequence (P07384 whole entry): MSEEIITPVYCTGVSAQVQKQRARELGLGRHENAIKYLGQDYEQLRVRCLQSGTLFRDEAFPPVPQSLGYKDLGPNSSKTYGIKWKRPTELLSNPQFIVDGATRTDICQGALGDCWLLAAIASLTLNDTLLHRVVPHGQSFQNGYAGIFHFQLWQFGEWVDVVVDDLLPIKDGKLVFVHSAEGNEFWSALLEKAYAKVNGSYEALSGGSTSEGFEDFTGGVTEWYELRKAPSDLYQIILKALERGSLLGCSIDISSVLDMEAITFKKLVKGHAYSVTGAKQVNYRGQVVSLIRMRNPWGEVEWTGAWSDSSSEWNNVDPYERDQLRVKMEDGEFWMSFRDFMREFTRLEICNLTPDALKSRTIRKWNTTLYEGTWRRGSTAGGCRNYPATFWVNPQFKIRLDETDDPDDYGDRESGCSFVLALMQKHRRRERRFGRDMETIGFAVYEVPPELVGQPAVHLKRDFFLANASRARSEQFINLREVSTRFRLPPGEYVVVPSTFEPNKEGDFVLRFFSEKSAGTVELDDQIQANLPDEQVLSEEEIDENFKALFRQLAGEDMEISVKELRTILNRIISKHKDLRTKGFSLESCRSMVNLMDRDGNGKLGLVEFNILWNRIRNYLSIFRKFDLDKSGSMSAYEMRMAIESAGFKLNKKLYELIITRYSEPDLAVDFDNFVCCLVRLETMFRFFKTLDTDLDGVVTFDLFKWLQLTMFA
- Sequence (P04632 whole entry partner): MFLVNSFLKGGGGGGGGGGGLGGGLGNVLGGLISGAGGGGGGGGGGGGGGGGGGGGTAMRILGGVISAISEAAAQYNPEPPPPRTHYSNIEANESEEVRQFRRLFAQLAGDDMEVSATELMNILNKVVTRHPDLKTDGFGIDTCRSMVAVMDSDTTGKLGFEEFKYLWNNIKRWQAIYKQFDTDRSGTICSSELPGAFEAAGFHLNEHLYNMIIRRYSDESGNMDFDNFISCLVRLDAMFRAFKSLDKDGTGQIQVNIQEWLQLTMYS
- experiment-notes: Calpain I enzyme inhibition in vitro (kinetic fluorescence assay)
- particulars: apparent Ki from IC50 by Cheng-Prussoff; calpain-I from human erythrocytes, pH 7.3
pKi: −log10 of the molar value.
readout-label: pKi

                                   compound                         target_under_test  recorded_result
0  CONC(=O)C(=O)C(Cc1ccccc1)NC(=O)c1cccnc1-n1cc2ccc(F)cc2n1 (stereo not shown)  calpain-I (Homo sapiens, UniProt P07384)     6.40 to 6.60
1  CONC(=O)C(=O)C(Cc1ccccc1)NC(=O)c1cccnc1-n1cc2ccc(C(F)(F)F)cc2n1 (stereo not shown)  calpain-I (Homo sapiens, UniProt P07384)           > 6.60
2  CONC(=O)C(=O)C(Cc1ccccc1)NC(=O)c1cccnc1-n1cc2ccccc2n1 (stereo not shown)  calpain-I (Homo sapiens, UniProt P07384)           > 6.60
3  CCONC(=O)C(=O)C(Cc1ccccc1)NC(=O)c1cccnc1-n1cc2ccccc2n1 (stereo not shown)  calpain-I (Homo sapiens, UniProt P07384)           > 6.60
4  CONC(=O)C(=O)C(Cc1ccccc1)NC(=O)c1cccnc1-n1cc2cc(F)ccc2n1 (stereo not shown)  calpain-I (Homo sapiens, UniProt P07384)           > 6.60
5  O=C(NC1CC1)C(=O)C(Cc1ccccc1)NC(=O)c1cccnc1-n1cc2ccccc2n1 (stereo not shown)  calpain-I (Homo sapiens, UniProt P07384)     6.10 to 6.40
6  O=C(NC1CC1)C(=O)C(Cc1ccccc1)NC(=O)c1cccnc1-n1cc2c(n1)CCCC2 (stereo not shown)  calpain-I (Homo sapiens, UniProt P07384)     6.10 to 6.40

====

- experiment-notes: In-vivo pharmacokinetics and metabolite to parent ratio in plasma of cynomolgus monkeys
- particulars: cynomolgus monkey, female cynomolgus monkeys, 3 mg/kg oral versus 1 mg/kg intravenous
readout-label: bioavailability (%)

>>> df
                                   molecule  endpoint_unit  recorded_result
0  NC(=O)C(=O)C(Cc1ccccc1)NC(=O)c1cccnc1-n1cc2ccccc2n1 (stereo not shown)              %                3
